- Tested on: EKVX
- PROTOCOL DETAILS: NCI tumour cell line growth inhibition, 48 h
Active and inactive are the calls of the source. Rule as the data show it: active = GI50 up to about 1.1 µM and inactive = higher.
Outcome field: choose from active, inactive

These recorded examples may help you get a feel for the data.
COMPOUND	TARGET ENTITY	LABEL
CC(=O)NNc1nc(C)c(C(=O)/C=C/c2ccc(Cl)c(Cl)c2)s1	EKVX	inactive
Cc1cc2nc3n(c2cc1C)C(c1c(F)cccc1F)SC3 (stereo not drawn)	EKVX	inactive
C[C@H]1[C@H](C)CC[C@]2(C(=O)OC3OC(CO)C(O)C(O)C3O)CC[C@]3(C)C(=CC[C@@H]4[C@@]5(C)C[C@@H](O)[C@@H]6OC(=O)c7cc(O)c(O)c(O)c7-c7c(cc(O)c(O)c7O)C(=O)OC[C@@]6(CO)[C@@H]5CC[C@]43C)[C@H]12 (stereo partly drawn)	EKVX	inactive
CC(=O)O[C@H]1C(=O)[C@@]2(C)[C@H]([C@H](OC(=O)c3ccco3)[C@]3(O)C[C@H](OC(=O)[C@H](O)[C@@H](NC(=O)c4ccccc4)c4ccccc4)C(C)=C1C3(C)C)[C@]1(OC(C)=O)CO[C@@H]1C[C@@H]2O	EKVX	inactive
BrCC(Br)(c1ccccc1)c1ccccc1-c1cc(-c2ccccc2)cc(-c2ccccc2)n1 (stereo not drawn)	EKVX	inactive

stdin: Status in this test for COc1cc(Br)cc2cc(C3=CSC4=NCCN34)c(=O)oc12 ?
stdout: inactive

stdin: Status in this test for c1cc(-c2cscc2-c2ccsc2)cs1 ?
stdout: inactive

stdin: Status in this test for O=C(CCn1[nH]c(=O)c(Cl)c(Cl)c1=O)NNC(=O)C[n+]1ccccc1 ?
stdout: inactive

stdin: Status in this test for C=C1C(=O)C[C@@]23CCC[C@@]12CC(OCOC)C3 (stereo partly drawn) ?
stdout: inactive

stdin: Status in this test for CCOC(=O)C(=O)Nc1c(N(CC)CC)n2ccccc2nc1=O ?
stdout: inactive
